Data provenance is patent US20250059172A1.

# Test system: human A549 cells
# assay-remarks: Inhibition test of PGE2 production using human A549 cells
# Format: cell-based
# conditions: IL-1β stimulated A549 cells, 24 h, PGE2 by HTRF, read-out: A549 cell inhibition of PGE2 production IC50
Counter-ions that a name gives are not always drawn.
Each entry below lists one item and its recorded IC50 value.
observed-property: IC50

>>> test_result("COc1ccc(-n2ncc3c(NC(=O)c4cc(CNC(=O)C(C)(C)C)ccc4Cl)cccc32)cc1C(F)(F)F")
"3.6 nM"
>>> test_result("O=C(Nc1cccc2c1cnn2-c1ccncc1)c1cc(CNC(=O)C2CC2)ccc1Cl [Example 5, hydrochloride]")
"688 nM"
>>> test_result("Cc1cc(-n2ncc3c(NC(=O)c4cc(CNC(=O)C(C)(C)C)ccc4C(F)(F)F)cccc32)cc(C)n1")
"1.9 nM"
>>> test_result("COCC(=O)NCc1ccc(Cl)c(C(=O)Nc2cccc3c2cnn3-c2ccc(OC)c(C(F)(F)F)c2)c1")
"2.7 nM"
>>> test_result("Cc1cc(-n2ncc3c(NC(=O)c4cc(CNC(=O)C(C)(C)C)ccc4Cl)cccc32)cc(C)n1 [Example 76, hydrochloride]")
"5.2 nM"
>>> test_result("CC(C)(C)C(=O)NCc1ccc(Cl)c(C(=O)Nc2cccc3c2cnn3-c2ccc(C(F)(F)F)nc2)c1")
"1 nM"
>>> test_result("COC(C)(C)c1ccc(-n2ncc3c(NC(=O)c4cc(CNC(=O)C(C)(C)C)ccc4Cl)cccc32)cn1 [Example 84, hydrochloride]")
"4.9 nM"

----------
# Tested on: human A549 cells
# assay-remarks: Inhibition test of PGE2 production using human A549 cells
# Assay type: cell-based
# conditions: IL-1β stimulated A549 cells, 24 h, PGE2 by HTRF, read-out: A549 cell inhibition of PGE2 production IC50
pIC50: −log10 of the molar value. Structures can show the parent of a compound that is named as a salt.
Each entry below lists one item and its recorded pIC50 value.
observed-property: pIC50

>>> test_result("Cc1ccc(-n2ncc3c(NC(=O)c4cc(CNC(=O)C5(C(F)(F)F)CC5)ccc4Cl)cccc32)cc1Cl")
8.92
>>> test_result("O=C(Nc1cccc2c1cnn2-c1ccc(C(F)(F)F)cc1)c1cc(CNC(=O)C2CCOC2)ccc1Cl (stereo not drawn)")
7.68
>>> test_result("COCC(=O)NCc1ccc(Cl)c(C(=O)Nc2cccc3c2cnn3-c2cccc(C(F)(F)F)c2)c1")
8.48
>>> test_result("CC(C)(C)OC(=O)N1CCC(C(=O)NCc2ccc(Cl)c(C(=O)Nc3cccc4c3cnn4-c3ccc(C(F)(F)F)cc3)c2)CC1")
8.77
>>> test_result("COc1cccc(-n2ncc3c(NC(=O)c4cc(CNC(=O)C(C)(C)C)ccc4Cl)cccc32)c1")
9.05
>>> test_result("Cc1ccc(-n2ncc3c(NC(=O)c4cc(CNC(=O)C(C)(C)C)ccc4C(F)(F)F)cccc32)cc1Cl")
9.05
>>> test_result("CC(C)(C)C(=O)NCc1ccc(Cl)c(C(=O)Nc2cccc3c2cnn3-c2cncc(C3CC3)c2)c1 [Example 64, hydrochloride]")
8.72
>>> test_result("Cn1ncc2c(NC(=O)c3cc(CNC(=O)C4CC4)ccc3Cl)cccc21")
7.04
>>> test_result("O=C(NCc1ccc(Cl)c(C(=O)Nc2cccc3c2cnn3-c2ccc(C(F)(F)F)cc2)c1)c1ccccc1")
7.89
>>> test_result("CC(C)(CO)C(=O)NCc1ccc(Cl)c(C(=O)Nc2cccc3c2cnn3-c2cccc(C(F)(F)F)c2)c1")
9.22
>>> test_result("Cc1cncc(-n2ncc3c(NC(=O)c4cc(CNC(=O)C(C)(C)C)ccc4Cl)cccc32)c1 [Example 60, hydrochloride]")
7.98
>>> test_result("O=C(Nc1cccc2c1cnn2-c1ccc(F)cc1)c1cc(CNC(=O)C2CCCC2)ccc1Cl")
8.12
>>> test_result("CC(C)(C)C(=O)NCc1ccc(Cl)c(C(=O)Nc2cccc3c2cnn3-c2ccc(C(F)(F)F)cc2)c1")
8.46
>>> test_result("O=C(NCc1ccc(Cl)c(C(=O)Nc2cccc3c2cnn3-c2ccc(C(F)(F)F)cc2)c1)c1ccco1")
7.42
>>> test_result("CCn1ncc2c(NC(=O)c3cc(CNC(=O)C4CCCC4)ccc3Cl)cccc21")
7.18

----------
# tested-system: human mPGES-1 (Homo sapiens (Human))
# assay-remarks: mPGES-1 inhibitory activity test
# Format: biochemical
# conditions: 10 nM test compound
observed-property: inhibition at 0.01 µM

>>> test_result("COCC(=O)NCc1ccc(Cl)c(C(=O)Nc2cccc3c2cnn3-c2ccc(Cl)cc2)c1 [Example 148]")
"70%"
>>> test_result("O=C(Nc1cccc2c1cnn2-c1cccc(C(F)(F)F)c1)c1cc(CNC(=O)C2(O)CC2)ccc1Cl [Example 221]")
"65%"
>>> test_result("O=C(Nc1cccc2c1cnn2-c1cscn1)c1cc(CNC(=O)C2(C(F)(F)F)CC2)ccc1Cl [Example 189]")
"80%"
>>> test_result("CCn1ncc2c(NC(=O)c3cc(CNC(=O)C4CCCC4)ccc3Cl)cccc21 [Example 211]")
"84%"

----------
Each entry below lists one item and its recorded IC50 value.
# Tested on: human A549 cells
# assay-remarks: Inhibition test of PGE2 production using human A549 cells
# Assay type: cell-based
# conditions: IL-1β stimulated A549 cells, 24 h, PGE2 by HTRF, read-out: A549 cell inhibition of PGE2 production IC50
observed-property: IC50 (nM)

>>> test_result("O=C(Nc1cccc2c1cnn2-c1cccc(C(F)(F)F)c1)c1c(F)ccc(CNC(=O)C2CC2)c1F [Example 16]")
9.7
>>> test_result("CCOc1cccc(-n2ncc3c(NC(=O)c4cc(CNC(=O)C(C)(C)C)ccc4Cl)cccc32)c1 [Example 66]")
4
>>> test_result("Cc1ccc(-n2ncc3c(NC(=O)c4cc(CNC(=O)C(C)(C)CO)ccc4Cl)cccc32)cc1C(F)(F)F [Example 259]")
0.5
>>> test_result("COc1cc(-n2ncc3c(NC(=O)c4cc(CNC(=O)C(C)(C)CO)ccc4Cl)cccc32)ccn1 [Example 164]")
28.4
>>> test_result("Cc1ccc(-n2ncc3c(NC(=O)c4cc(CNS(=O)(=O)C5CC5)ccc4Cl)cccc32)cc1C(F)(F)F [Example 260]")
1
>>> test_result("COCC(=O)NCc1ccc(Cl)c(C(=O)Nc2cccc3c2cnn3-c2ccc(C)c(C(F)(F)F)c2)c1 [Example 258]")
3.2
>>> test_result("O=C(Nc1cccc2c1cnn2-c1cscn1)c1cc(CNC(=O)C2CCCC2)ccc1Cl [Example 188]")
102

----------
# System: human A549 cells
# assay-remarks: Inhibition test of PGE2 production using human A549 cells
# Type: cell-based
# conditions: IL-1β stimulated A549 cells, 24 h, PGE2 by HTRF, read-out: A549 cell inhibition of PGE2 production IC50
pIC50: −log10 of the molar value.
Answer Condition not met if pIC50 is under 8, and Condition met if it is 8 or more.

>>> assigned_class("O=C(CC(F)(F)F)NCc1ccc(Cl)c(C(=O)Nc2cccc3c2cnn3-c2ccc(C(F)(F)F)cc2)c1")
"Condition met"
>>> assigned_class("CC(C)(C)C(=O)NCc1ccc(C(F)(F)F)c(C(=O)Nc2cccc3c2cnn3-c2ccc(C(F)(F)F)nc2)c1")
"Condition met"
>>> assigned_class("CCn1ncc2c(NC(=O)c3cc(CNC(=O)C4(C(F)(F)F)CC4)ccc3Cl)cccc21")
"Condition not met"
>>> assigned_class("CC(C)(C)C(=O)NCc1ccc(Cl)c(C(=O)Nc2cccc3c2cnn3-c2cncc(C(F)(F)F)c2)c1")
"Condition met"
>>> assigned_class("Cc1ccc(-n2ncc3c(NC(=O)c4cc(CNS(=O)(=O)C5CC5)ccc4Cl)cccc32)cc1Cl")
"Condition met"

----------
# tested-system: human mPGES-1 (Homo sapiens (Human), UniProt O14684)
# Sequence (O14684 whole entry): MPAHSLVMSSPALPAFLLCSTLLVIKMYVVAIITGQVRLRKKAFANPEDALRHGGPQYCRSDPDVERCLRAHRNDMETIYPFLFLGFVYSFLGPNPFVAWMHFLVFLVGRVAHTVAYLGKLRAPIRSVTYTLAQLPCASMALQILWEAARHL
# assay-remarks: mPGES-1 inhibitory activity test
# Assay type: biochemical
# conditions: 10 nM test compound
Answer label 0 if inhibition at 0.01 µM is under 70%, and label 1 if it is 70% or more.

>>> assigned_class("Cn1ncc2c(NC(=O)c3cc(CNC(=O)C4CCCC4)ccc3Cl)cccc21")
"label 0"
>>> assigned_class("CCn1ncc2c(NC(=O)c3cc(CNC(=O)C(C)(C)C)ccc3C(F)(F)F)cccc21")
"label 1"
>>> assigned_class("CC(C)(C)CC(=O)NCc1ccc(Cl)c(C(=O)Nc2cccc3c2cnn3-c2cccc(OC(F)F)c2)c1")
"label 0"
>>> assigned_class("CC(C)(C)C(=O)NCc1ccc(C(F)(F)F)c(C(=O)Nc2cccc3c2cnn3-c2ccc(OC(F)(F)F)cc2)c1")
"label 0"

----------
# Tested on: human A549 cells
# assay-remarks: Inhibition test of PGE2 production using human A549 cells
# Assay type: cell-based
# conditions: IL-1β stimulated A549 cells, 24 h, PGE2 by HTRF, read-out: A549 cell inhibition of PGE2 production IC50
Each entry below lists one item and its recorded IC50 value.
observed-property: IC50 (nM)

>>> test_result("O=C(Nc1cccc2c1cnn2-c1ccc(C(F)(F)F)cc1)c1cc(CNC(=O)C2CCCCC2)ccc1Cl")
5.5
>>> test_result("CC(C)(C)C(=O)NCc1ccc(Cl)c(C(=O)Nc2cccc3c2cnn3C2CCCC2)c1")
5.3
>>> test_result("O=C(Nc1cccc2c1cnn2-c1cccc(C(F)(F)F)c1)c1cc(CNC(=O)C2CCCC2)ccc1Cl")
1
>>> test_result("COc1ccc(-n2ncc3c(NC(=O)c4cc(CNC(=O)C5CCCC5)ccc4Cl)cccc32)cc1C(F)(F)F")
2
>>> test_result("CC(C)(C)C(=O)NCc1ccc(C(F)(F)F)c(C(=O)Nc2cccc3c2cnn3-c2ccc(OC(F)(F)F)cc2)c1")
0.7
>>> test_result("O=C(Nc1cccc2c1cnn2-c1ccccn1)c1cc(CNC(=O)C2CC2)ccc1Cl")
11.3
>>> test_result("COc1cc(-n2ncc3c(NC(=O)c4cc(CNS(=O)(=O)C5CC5)ccc4Cl)cccc32)ccn1")
8.6
>>> test_result("Cc1ccc(-n2ncc3c(NC(=O)c4cc(CNC(=O)C5(C(F)(F)F)CC5)ccc4Cl)cccc32)cc1C(F)(F)F")
0.3
>>> test_result("O=C(Nc1cccc2c1cnn2-c1ccc(Cl)cc1)c1cc(CNS(=O)(=O)C2CC2)ccc1Cl")
5.9
>>> test_result("CC(C)(C)C(=O)NCc1ccc(C(F)(F)F)c(C(=O)Nc2cccc3c2cnn3C2CC2)c1")
7.7
>>> test_result("CC(C)(C)C(=O)NCc1ccc(Cl)c(C(=O)Nc2cccc3c2cnn3CCCCc2ccccc2)c1")
20.6
>>> test_result("O=C(Nc1cccc2c1cnn2-c1ccc(C(F)(F)F)cc1)c1cc(CNC(=O)[C@H]2CC[C@@H](O)CC2)ccc1Cl")
60.2
>>> test_result("O=C(Nc1cccc2c1cnn2-c1ccccc1)c1cc(CNC(=O)C2CC2)ccc1Cl")
6.3
>>> test_result("O=C(Nc1cccc2c1cnn2-c1cncc(C(F)(F)F)c1)c1cc(CNS(=O)(=O)C2CC2)ccc1Cl")
5.6
>>> test_result("CC(C)(C)C(=O)NCc1ccc(Cl)c(C(=O)Nc2cccc3c2cnn3-c2ccnc(C3CC3)c2)c1.Cl [Example 70, hydrochloride]")
1
>>> test_result("Cn1ncc2c(NC(=O)c3cc(CNC(=O)C4CCCC4)ccc3Cl)cccc21")
43.6
>>> test_result("O=C(Nc1cccc2c1cnn2-c1ccc(C(F)(F)F)cc1)c1cc(CNC(=O)C2CCC2)ccc1Cl")
6.7
>>> test_result("CCCC(=O)NCc1ccc(Cl)c(C(=O)Nc2cccc3c2cnn3-c2ccc(C(F)(F)F)cc2)c1")
13.5
>>> test_result("CC(C)(C)C(=O)NCc1ccc(Cl)c(C(=O)Nc2cccc3c2cnn3-c2ccc(OC(F)(F)F)cc2)c1")
112
>>> test_result("COc1ccc(-n2ncc3c(NC(=O)c4cc(CNC(=O)C5CCCC5)ccc4Cl)cccc32)cn1")
3.5
>>> test_result("O=C(Nc1cccc2c1cnn2-c1ccc(F)cc1)c1cc(CNC(=O)C2(O)CC2)ccc1Cl")
17.6
>>> test_result("CC(C)(C)C(=O)NCc1ccc(Cl)c(C(=O)Nc2cccc3c2cnn3-c2ccc(CO)nc2)c1")
260
>>> test_result("O=C(Nc1cccc2c1cnn2-c1ccc(C(F)(F)F)cc1)c1cc(CNC(=O)C2CCCO2)ccc1Cl (stereo not drawn)")
41.4
>>> test_result("Cc1ccc(-n2ncc3c(NC(=O)c4cc(CNC(=O)C5(O)CC5)ccc4Cl)cccc32)cc1C(F)(F)F")
4.3
>>> test_result("Cc1ccc(-n2ncc3c(NC(=O)c4cc(CNC(=O)CC(C)(C)C)ccc4Cl)cccc32)cc1Cl")
4.7
>>> test_result("COCC(=O)NCc1ccc(Cl)c(C(=O)Nc2cccc3c2cnn3-c2ccc(C(F)(F)F)cc2)c1")
68
>>> test_result("COCC(=O)NCc1ccc(Cl)c(C(=O)Nc2cccc3c2cnn3C)c1")
303
>>> test_result("CC(C)(C)C(=O)NCc1ccc(Cl)c(C(=O)Nc2cccc3c2cnn3CC2CCC2)c1")
4.1
>>> test_result("CC(C)(CO)C(=O)NCc1ccc(Cl)c(C(=O)Nc2cccc3c2cnn3-c2cncc(C(F)(F)F)c2)c1")
9.6
>>> test_result("O=C(Nc1cccc2c1cnn2-c1ccc(C(F)(F)F)cc1)c1cc(CNC(=O)C(F)(F)F)ccc1Cl")
1.6
